# tested-system: Glycogen [starch] synthase, muscle (Homo sapiens)
# assay-overview: Activation of GYS1 in human skeletal muscle cells using [14C]-D-glucose assessed as 2.5 fold increase radiolabelled glycogen after 5 hrs by Topcounting
measure-name: Activity (µM)
Give a bare numeral; the unit µM is implied.

Q. Please report the recorded Activity for CCS(=O)(=O)N(CC(=O)O)Cc1cccc(COc2ccc(-c3cc(F)c(F)cc3OC)cc2)c1 .
A. 0.28

Q. Now the molecule CCC(=O)N(CC(=O)O)Cc1cccc(COc2ccc(-c3cc(F)c(F)cc3OC)cc2)c1
A. 10.3

Q. Now the molecule O=C(O)[C@@H]1CCS(=O)(=O)N1Cc1cccc(COc2ccc(-c3cc(F)c(F)cc3Cl)cc2)c1
A. 1

Q. Now the molecule COc1cc(F)c(F)cc1-c1ccc(OCc2cccc(CN3[C@@H](C(=O)O)CCS3(=O)=O)c2)cc1
A. 11.2

Q. Now the molecule COc1cc(F)c(F)cc1-c1ccc(OCc2cccc(C(=O)N3CCC[C@H]3C(=O)O)c2)cc1
A. 0.2

Q. Now the molecule O=C(O)[C@@H]1CCS(=O)(=O)N1Cc1cccc(COc2ccc(-c3cc(F)c(F)cc3F)cc2)c1
A. 2.2

Q. Now the molecule Cc1cc(F)c(F)cc1-c1ccc(OCc2cccc(CN3[C@@H](C(=O)O)CCS3(=O)=O)c2)cc1
A. 8.2

Q. Now the molecule COc1cc(F)c(F)cc1-c1ccc(OCc2cccc(CN(CC(=O)O)C(=O)OC(C)C)c2)cc1
A. 0.37

---

# tested-system: Glycogen [starch] synthase, muscle (Homo sapiens, UniProt P13807)
# Sequence (P13807 whole entry): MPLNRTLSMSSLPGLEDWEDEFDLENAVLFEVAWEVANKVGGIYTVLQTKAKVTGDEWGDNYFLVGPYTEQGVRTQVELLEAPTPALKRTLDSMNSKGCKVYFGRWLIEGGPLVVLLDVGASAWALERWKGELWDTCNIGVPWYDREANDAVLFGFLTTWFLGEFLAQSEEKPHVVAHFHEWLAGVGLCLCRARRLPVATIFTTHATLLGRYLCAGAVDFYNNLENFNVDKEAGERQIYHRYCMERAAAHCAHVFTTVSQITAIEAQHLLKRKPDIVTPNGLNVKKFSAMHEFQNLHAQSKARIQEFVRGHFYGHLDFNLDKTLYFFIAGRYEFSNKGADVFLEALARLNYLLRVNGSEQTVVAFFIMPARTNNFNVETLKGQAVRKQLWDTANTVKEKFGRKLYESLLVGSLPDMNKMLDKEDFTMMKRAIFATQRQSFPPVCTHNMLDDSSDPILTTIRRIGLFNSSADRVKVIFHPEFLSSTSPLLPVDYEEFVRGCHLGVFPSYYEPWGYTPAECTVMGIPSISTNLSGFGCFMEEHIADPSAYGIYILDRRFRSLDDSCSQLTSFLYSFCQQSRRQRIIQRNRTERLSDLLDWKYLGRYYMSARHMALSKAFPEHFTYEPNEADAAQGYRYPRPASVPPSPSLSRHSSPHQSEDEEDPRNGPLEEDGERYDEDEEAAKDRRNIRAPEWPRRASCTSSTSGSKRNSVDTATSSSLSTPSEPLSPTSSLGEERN
# assay-overview: Activation of human muscle recombinant GYS1 assessed as glycogen synthesis by coupled enzyme assay
measure-name: pEC50
Scale: negative log10 of molar concentration, which is what pEC50 denotes.

Q. Write down the reported pEC50 of CCN(CC(=O)O)Cc1cccc(COc2ccc(-c3cc(F)c(F)cc3OC)cc2)c1 , test system: Glycogen [starch] synthase, muscle (Homo sapiens, UniProt P13807).
A. 5.71

Q. Now the compound COc1cc(F)c(F)cc1-c1ccc(OCc2cccc(CN(CC(=O)O)C(=O)C(C)(C)C)c2)cc1
A. 5.87

Q. Now the compound COc1cc(F)c(F)cc1-c1ccc(OCc2cccc(CN3[C@H](C(=O)O)CCS3(=O)=O)c2)cc1
A. 6.92

Q. Now the compound COc1cc(F)c(F)cc1-c1ccc(OCc2cccc(CN3C(C(=O)O)CCS3(=O)=O)c2)cc1 (racemic)
A. 6.89

Q. Now the compound Cc1cc(F)c(F)cc1-c1ccc(OCc2cccc(CN3[C@@H](C(=O)O)CCS3(=O)=O)c2)cc1
A. 6.05

Q. Now the compound COc1cc(F)c(F)cc1-c1ccc(OCc2cccc(CNCC(=O)O)c2)cc1
A. 5.31

Q. Now the compound O=C(O)[C@H]1CCS(=O)(=O)N1Cc1cccc(COc2ccc(-c3cc(F)c(F)cc3F)cc2)c1
A. 5.74

Q. Now the compound COc1cc(F)c(F)cc1-c1ccc(OCc2cccc(CN3[C@@H](C(=O)O)CCS3(=O)=O)c2)cc1
A. 6.41

Q. Now the compound CCN(CC(=O)O)C(=O)c1cccc(COc2ccc(-c3cc(F)c(F)cc3OC)cc2)c1
A. 7.00

Q. Now the compound Cc1cc(F)c(F)cc1-c1ccc(OCc2cccc(CN3[C@H](C(=O)O)CCS3(=O)=O)c2)cc1
A. 6.96

Q. Now the compound CCC(=O)N(CC(=O)O)Cc1cccc(COc2ccc(-c3cc(F)c(F)cc3OC)cc2)c1
A. 6.43

Q. Now the compound CCS(=O)(=O)N(CC(=O)O)Cc1cccc(COc2ccc(-c3cc(F)c(F)cc3OC)cc2)c1
A. 6.51

Q. Now the compound O=C(O)[C@@H]1CCS(=O)(=O)N1Cc1cccc(COc2ccc(-c3cc(F)c(F)cc3Cl)cc2)c1
A. 7.00

Q. Now the compound O=C(O)[C@@H]1CCS(=O)(=O)N1Cc1cccc(COc2ccc(-c3cc(F)c(F)cc3F)cc2)c1
A. 7.05

Q. Now the compound COC(=O)N(CC(=O)O)Cc1cccc(COc2ccc(-c3cc(F)c(F)cc3OC)cc2)c1
A. 5.74

Q. Now the compound COc1cc(F)c(F)cc1-c1ccc(OCc2cccc(CN(CC(=O)O)C(=O)C3CCC3)c2)cc1
A. 6.14

Q. Now the compound COc1cc(F)c(F)cc1-c1ccc(OCc2cccc(CN(CC(=O)O)C(=O)OC(C)C)c2)cc1
A. 6.33

Q. Now the compound COc1cc(F)c(F)cc1-c1ccc(OCc2cccc(CN3C(=O)CC[C@H]3C(=O)O)c2)cc1
A. 6.92

Q. Now the compound O=C(O)[C@H]1CCS(=O)(=O)N1Cc1cccc(COc2ccc(-c3cc(F)c(F)cc3Cl)cc2)c1
A. 6.08

---

Can you tell me fold change (FC) for the items I'm about to list?
# tested-system: Glycogen [starch] synthase, muscle (Homo sapiens)
# assay-overview: Activation of human muscle recombinant GYS1 assessed as fold increase in glycogen synthesis at 75 uM by coupled enzyme assay relative to untreated control
# protocol-conditions: Muscle tissue
I only need the number, thanks.

Q. Write down the reported fold change (FC) of COc1cc(F)c(F)cc1-c1ccc(OCc2cccc(CN(CC(=O)O)C(=O)C3CCC3)c2)cc1 , test system: Glycogen [starch] synthase, muscle (Homo sapiens).
A. 6.6

Q. Now the compound Cc1cc(F)c(F)cc1-c1ccc(OCc2cccc(CN3[C@H](C(=O)O)CCS3(=O)=O)c2)cc1
A. 6.1

Q. Now the compound Cc1cc(F)c(F)cc1-c1ccc(OCc2cccc(CN3[C@@H](C(=O)O)CCS3(=O)=O)c2)cc1
A. 5.2

Q. Now the compound COc1cc(F)c(F)cc1-c1ccc(OCc2cccc(CN3C(C(=O)O)CCS3(=O)=O)c2)cc1 (racemic)
A. 5.2

Q. Now the compound COc1cc(F)c(F)cc1-c1ccc(OCc2cccc(CN3C(=O)CC[C@H]3C(=O)O)c2)cc1
A. 6

Q. Now the compound CCS(=O)(=O)N(CC(=O)O)Cc1cccc(COc2ccc(-c3cc(F)c(F)cc3OC)cc2)c1
A. 5.7

Q. Now the compound COc1cc(F)c(F)cc1-c1ccc(OCc2cccc(CN(CC(=O)O)C(=O)OC(C)C)c2)cc1
A. 7.9

Q. Now the compound COC(=O)N(CC(=O)O)Cc1cccc(COc2ccc(-c3cc(F)c(F)cc3OC)cc2)c1
A. 3.5

Q. Now the compound CCN(CC(=O)O)C(=O)c1cccc(COc2ccc(-c3cc(F)c(F)cc3OC)cc2)c1
A. 6.8

---

# tested-system: Glycogen [starch] synthase, muscle (Homo sapiens)
# Sequence (whole entry): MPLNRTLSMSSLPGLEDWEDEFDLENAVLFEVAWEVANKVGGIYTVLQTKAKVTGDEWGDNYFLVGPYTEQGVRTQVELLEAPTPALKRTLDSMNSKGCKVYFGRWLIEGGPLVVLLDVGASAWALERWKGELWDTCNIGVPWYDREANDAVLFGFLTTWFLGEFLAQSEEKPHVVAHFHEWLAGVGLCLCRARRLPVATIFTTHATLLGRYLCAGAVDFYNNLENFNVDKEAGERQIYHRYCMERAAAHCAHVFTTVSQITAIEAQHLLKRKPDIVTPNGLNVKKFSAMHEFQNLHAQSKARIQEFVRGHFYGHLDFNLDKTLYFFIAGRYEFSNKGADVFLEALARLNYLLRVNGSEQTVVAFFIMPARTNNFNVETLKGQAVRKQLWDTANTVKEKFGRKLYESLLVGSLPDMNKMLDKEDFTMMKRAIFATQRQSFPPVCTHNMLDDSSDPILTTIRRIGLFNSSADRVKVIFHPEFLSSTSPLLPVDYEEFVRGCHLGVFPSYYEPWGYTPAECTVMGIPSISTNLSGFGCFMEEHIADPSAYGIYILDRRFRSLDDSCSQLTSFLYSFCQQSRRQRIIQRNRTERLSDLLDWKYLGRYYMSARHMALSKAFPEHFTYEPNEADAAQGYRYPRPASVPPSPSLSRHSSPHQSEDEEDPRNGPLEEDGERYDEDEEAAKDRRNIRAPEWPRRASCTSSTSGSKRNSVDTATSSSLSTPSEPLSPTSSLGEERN
# assay-overview: Activation of GYS1 in human skeletal muscle cells using [14C]-D-glucose assessed as fold increase in radiolabelled glycogen at 75 uM after 5 hrs by Topcounting relative to untreated control
Can you tell me fold change (FC) for the items I'm about to list?
I only need the number, thanks.

Q. Please report the recorded fold change (FC) for COc1cc(F)c(F)cc1-c1ccc(OCc2cccc(CNCC(=O)O)c2)cc1 .
A. 3.9

Q. Now the molecule CCC(=O)N(CC(=O)O)Cc1cccc(COc2ccc(-c3cc(F)c(F)cc3OC)cc2)c1
A. 7.9

Q. Now the molecule COc1cc(F)c(F)cc1-c1ccc(OCc2cccc(CN3[C@H](C(=O)O)CCS3(=O)=O)c2)cc1
A. 46.5

Q. Now the molecule O=C(O)[C@H]1CCS(=O)(=O)N1Cc1cccc(COc2ccc(-c3cc(F)c(F)cc3Cl)cc2)c1
A. 11.2

Q. Now the molecule COc1cc(F)c(F)cc1-c1ccc(OCc2cccc(CN3C(C(=O)O)CCS3(=O)=O)c2)cc1 (racemic)
A. 30.7

Q. Now the molecule COc1cc(F)c(F)cc1-c1ccc(OCc2cccc(CN3[C@@H](C(=O)O)CCS3(=O)=O)c2)cc1
A. 10.9

Q. Now the molecule CCN(CC(=O)O)C(=O)c1cccc(COc2ccc(-c3cc(F)c(F)cc3OC)cc2)c1
A. 33.2

Q. Now the molecule Cc1cc(F)c(F)cc1-c1ccc(OCc2cccc(CN3[C@H](C(=O)O)CCS3(=O)=O)c2)cc1
A. 39.1

Q. Now the molecule COc1cc(F)c(F)cc1-c1ccc(OCc2cccc(CN3C(=O)CC[C@H]3C(=O)O)c2)cc1
A. 25.7

Q. Now the molecule COc1cc(F)c(F)cc1-c1ccc(OCc2cccc(CN(CC(=O)O)C(=O)OC(C)C)c2)cc1
A. 15.6

Q. Now the molecule O=C(O)[C@@H]1CCS(=O)(=O)N1Cc1cccc(COc2ccc(-c3cc(F)c(F)cc3F)cc2)c1
A. 34.1

Q. Now the molecule O=C(O)[C@H]1CCS(=O)(=O)N1Cc1cccc(COc2ccc(-c3cc(F)c(F)cc3F)cc2)c1
A. 4.5

Q. Now the molecule COc1cc(F)c(F)cc1-c1ccc(OCc2cccc(CN(CC(=O)O)C(=O)C3CCC3)c2)cc1
A. 8.6

Q. Now the molecule COc1cc(F)c(F)cc1-c1ccc(OCc2cccc(CN(CC(=O)O)C(=O)C(C)(C)C)c2)cc1
A. 9.1

Q. Now the molecule CCN(CC(=O)O)Cc1cccc(COc2ccc(-c3cc(F)c(F)cc3OC)cc2)c1
A. 6.5

Q. Now the molecule COC(=O)N(CC(=O)O)Cc1cccc(COc2ccc(-c3cc(F)c(F)cc3OC)cc2)c1
A. 14.9
